- assayed.target: acetyl-CoA carboxylase (ACC) (Rattus norvegicus, UniProt P11497)
- Construct: subjected to decapitation and bloodletting under ether anesthesia to quickly take out the liver; from tissue; host or cells: rat liver (male SD rat, fasted then fed a high-sucrose feed)
- test.method.notes: Measurement of ACC inhibition activity (14C-bicarbonate incorporation, ACC purified from rat liver)
- Type: biochemical
- conditions.used: 5.6 × 10^−6 M compound; ACC purified from SD rat liver
Give y when the value for inhibition at 5.6 µM is at least 80%. Give n when it is less.

[
  {
    "item.smiles": "CCCCC/C=C\\C/C=C\\CCCCCCCC(=O)NS(=O)(=O)c1ccccc1NC(=O)c1cccc(OCc2ccccc2)c1",
    "category.label": "y"
  },
  {
    "item.smiles": "CCCCCCCCCC(=O)NS(=O)(=O)c1ccccc1NC(=O)c1cccc(OCc2ccc(Cl)cc2)c1",
    "category.label": "y"
  },
  {
    "item.smiles": "CCCCCC(=O)NS(=O)(=O)c1ccccc1NC(=O)c1cccc(OCc2ccc(C(C)(C)C)cc2)c1",
    "category.label": "n"
  },
  {
    "item.smiles": "CCCCCCCCCC(=O)NS(=O)(=O)c1ccccc1NC(=O)c1cccc(OCCCCCCC)c1",
    "category.label": "y"
  },
  {
    "item.smiles": "CCCCCCCCCC(=O)NS(=O)(=O)c1ccccc1NC(=O)c1cccc(OCc2ccccc2)c1",
    "category.label": "n"
  }
]

###

melting point overview
recorded.endpoint: melting point

[
  {
    "molecule": "CCCCCC(=O)NS(=O)(=O)c1ccccc1NC(=O)c1cccc(OCc2ccc(Cl)cc2)c1 [Example 18]",
    "recorded.endpoint": "melting point",
    "reading": "148 to 149 °C"
  },
  {
    "molecule": "CCCCCC(=O)NS(=O)(=O)c1ccccc1NC(=O)c1cccc(OCC2CCCCC2)c1 [Example 27]",
    "recorded.endpoint": "melting point",
    "reading": "112 to 113 °C"
  },
  {
    "molecule": "CC(=O)NS(=O)(=O)c1ccccc1NC(=O)c1ccc(C#Cc2ccccc2)cc1 [Example 38]",
    "recorded.endpoint": "melting point",
    "reading": "214 to 215 °C"
  },
  {
    "molecule": "CCCCCCCCCC(=O)NS(=O)(=O)c1ccccc1NC(=O)c1cccc(OCC2CCCCC2)c1 [Example 28]",
    "recorded.endpoint": "melting point",
    "reading": "124 to 127 °C"
  },
  {
    "molecule": "CCCCCCCCCC(=O)NS(=O)(=O)c1ccccc1NC(=O)c1ccc([N+](=O)[O-])c(OCc2ccccc2)c1 [Example 16]",
    "recorded.endpoint": "melting point",
    "reading": "129 to 130 °C"
  },
  {
    "molecule": "O=C(Nc1ccccc1S(=O)(=O)NC(=O)c1cccc(OCc2ccccc2)c1)c1cccc(OCc2ccccc2)c1 [Example 1]",
    "recorded.endpoint": "melting point",
    "reading": "172 to 173 °C"
  },
  {
    "molecule": "COc1ccc(COc2cccc(C(=O)Nc3ccccc3S(=O)(=O)NC(C)=O)c2)cc1 [Example 23]",
    "recorded.endpoint": "melting point",
    "reading": "114 to 117 °C"
  },
  {
    "molecule": "O=C(Nc1ccccc1S(=O)(=O)NC(=O)c1ccccc1)c1cccc(OCc2ccccc2)c1 [Example 2]",
    "recorded.endpoint": "melting point",
    "reading": "201 to 202 °C"
  }
]
